All values here come from patent EP4682166A1.

# assayed.target: T1, human NMI (N-myc Interacting protein), recombinant protein (human, UniProt Q13287 1-307, limits assumed)
# T1 construct: Gene ID: 9111; also called hNMI; antigen
# T1 sequence (looked up): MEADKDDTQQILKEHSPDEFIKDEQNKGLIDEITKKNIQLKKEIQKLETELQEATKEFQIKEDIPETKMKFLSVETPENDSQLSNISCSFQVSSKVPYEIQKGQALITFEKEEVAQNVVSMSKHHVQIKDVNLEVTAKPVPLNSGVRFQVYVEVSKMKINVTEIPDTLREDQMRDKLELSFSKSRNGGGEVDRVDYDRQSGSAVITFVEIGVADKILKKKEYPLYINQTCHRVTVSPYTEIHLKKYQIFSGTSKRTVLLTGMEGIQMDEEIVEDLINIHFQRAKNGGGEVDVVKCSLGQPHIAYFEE
# procedure.text: sandwich ELISA; detection 94C4-1-biotin 0.5µg/mL; hNMI 1,562.500 pg/mL
measured.property: OD450 (OD450)
Numeric only. Scale: OD450

Q: What does the data say about its OD450? Entry: monoclonal antibody B-8 (antibody, V domains shown, Rabbit monoclonal antibody; also called B8-1) VH: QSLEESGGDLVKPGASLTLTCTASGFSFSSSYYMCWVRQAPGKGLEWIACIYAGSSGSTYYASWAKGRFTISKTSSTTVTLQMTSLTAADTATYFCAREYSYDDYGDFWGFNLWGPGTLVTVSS VL: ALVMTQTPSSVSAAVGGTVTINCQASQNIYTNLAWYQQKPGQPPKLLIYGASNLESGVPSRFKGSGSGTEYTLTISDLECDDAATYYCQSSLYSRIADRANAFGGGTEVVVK
Ans: 0.42
